tested on: Leishmania donovani; test: Antileishmanial activity against promastigote stage of Leishmania donovani MHOM/IN/80/Dd8 harboring luciferase reporter gene at 25 uM after 48 hrs by Steady-Glo luminescence assay relative to control; format: functional; settings: MHOM/IN/80/Dd8, 48 h
Think of 30% as a floor: if inhibition at 25 µM stands on it or above, it is Y; beneath it, N.

{"columns": ["MOLECULE", "CLASS"],
 "data": [
  ["CSc1ccc(C(=O)C(c2ccc(Cl)c(Cl)c2)C(NC(=O)c2ccc(Br)cc2)c2cccc3ccccc23)cc1 (stereo not given)", "Y"],
  ["CCOC(=O)C(C(=O)c1ccc(OC)cc1)C(NC(C)=O)c1ccc(C(C)(C)C)cc1 (stereo not given)", "Y"],
  ["CSc1ccc(C(=O)C(c2ccc(Cl)c(Cl)c2)C(NC(=O)c2cccc(C)c2)c2cc3ccccc3s2)cc1 (stereo not given)", "N"],
  ["CSc1ccc(C(=O)C(c2ccc(Cl)c(Cl)c2)C(NC(=O)c2ccccc2)c2cccc3ccccc23)cc1 (stereo not given)", "Y"]
]}

====

assay: Tmax in BALB/c mouse at 50 mg/kg, ip by HPLC analysis; format: ADME, organism-based; settings: in vivo

{"columns": ["MOLECULE", "Tmax (min)"],
 "data": [
  ["CCOC(=O)C(C(=O)c1ccc(OC)cc1)C(NC(C)=O)c1cccc2ccccc12 (stereo unspecified)", 15]
]}

====

assay: Stability in mouse liver microsomes assessed as compound remaining after 1 hr in presence of NADPH by UPLC analysis; format: ADME, Microsome; conditions: read-out: Stability
# Lookup of reported remaining at 1 h keyed by entry
REPORTED PROPERTY: remaining at 1 h (%)

{"columns": ["MOLECULE", "REPORTED PROPERTY", "UOM", "RESULT VALUE"],
 "data": [
  ["CCOC(=O)C(C(=O)c1ccc(OC)cc1)C(NC(C)=O)c1cccc2ccccc12 (configuration not stated)", "remaining at 1 h", "%", 86.9],
  ["CCOC(=O)C(C(=O)c1ccc(OC)cc1)C(NC(C)=O)c1cc(OC)ccc1Br (configuration not stated)", "remaining at 1 h", "%", 57.8]
]}

====

assay: Elimination rate constant in BALB/c mouse at 50 mg/kg, ip by HPLC analysis; format: ADME, organism-based; details: in vivo
REPORTED PROPERTY: k el (s⁻¹)

{"columns": ["COMPOUND", "UOM", "RESULT VALUE"],
 "data": [
  ["CCOC(=O)C(C(=O)c1ccc(OC)cc1)C(NC(C)=O)c1cccc2ccccc12 (stereo unspecified)", "s⁻¹", "3.89e-05"]
]}

====

experiment: Selectivity index, ratio of CC50 for mouse J774 cells to IC50 for antileishmanial activity against Leishmania donovani MHOM/IN/80/Dd8 amastigotes harboring luciferase reporter gene; type: toxicity; conditions: read-out: Ratio CC50/IC50
# Lookup of reported selectivity ratio keyed by entry
REPORTED PROPERTY: selectivity ratio

{"columns": ["COMPOUND", "RESULT VALUE"],
 "data": [
  ["CCOC(=O)C(C(=O)c1ccc(OC)cc1)C(NC(C)=O)c1cccc2ccccc12 (configuration not stated)", 23.4],
  ["CCCCCCCCCCCCCCCCOP(=O)([O-])OCC[N+](C)(C)C", 5.8]
]}

====

test: Selectivity index, ratio of CC50 for African green monkey Vero cells to IC50 for antileishmanial activity against Leishmania donovani MHOM/IN/80/Dd8 amastigotes harboring luciferase reporter gene; type: toxicity; conditions: read-out: Ratio CC50/IC50
# Lookup of reported selectivity ratio keyed by entry
REPORTED PROPERTY: selectivity ratio

{"columns": ["MOLECULE", "REPORTED PROPERTY", "RESULT VALUE"],
 "data": [
  ["CCOC(=O)C(C(=O)c1ccc(OC)cc1)C(NC(C)=O)c1cccc2ccccc12 (configuration not stated)", "selectivity ratio", 25.7],
  ["CCCCCCCCCCCCCCCCOP(=O)([O-])OCC[N+](C)(C)C [MILTEFOSINE]", "selectivity ratio", 5.3]
]}

====

experiment: Cytotoxicity against African green monkey Vero cells assessed as cell viability at 25 uM by MTT assay relative to control; assay type: cell-based; settings: chlorocebus sabaeus, read-out: Activity

{"columns": ["COMPOUND", "UOM", "viability at 25 µM"],
 "data": [
  ["CSc1ccc(C(=O)C(c2ccc(Cl)c(Cl)c2)C(NC(=O)c2ccc(C)cc2)c2cccc3ccccc23)cc1 (configuration not stated)", "%", 90.5],
  ["CSc1ccc(C(=O)C(c2ccc(Cl)c(Cl)c2)C(NC(=O)c2ccc(Br)cc2)c2cccc3ccccc23)cc1 (configuration not stated)", "%", 92.8],
  ["CSc1ccc(C(=O)C(c2ccc(Cl)c(Cl)c2)C(NC(=O)c2cccc(C)c2)c2cccc3ccccc23)cc1 (configuration not stated)", "%", 95.8],
  ["CSc1ccc(C(=O)C(c2ccc(Cl)c(Cl)c2)C(NC(=O)c2ccccc2)c2cc3ccccc3s2)cc1 (configuration not stated)", "%", 97.2],
  ["CSc1ccc(C(=O)C(c2ccc(Cl)c(Cl)c2)C(NC(=O)c2ccc(C)cc2)c2cc3ccccc3s2)cc1 (configuration not stated)", "%", 95.3],
  ["CCOC(=O)C(C(=O)c1ccc(OC)cc1)C(NC(C)=O)c1ccc(C(C)C)cc1 (configuration not stated)", "%", 98.8],
  ["CSc1ccc(C(=O)/C(=C/c2ccccn2)c2ccc(Cl)c(Cl)c2)cc1", "%", 97.9],
  ["CCOC(=O)C(C(=O)c1ccc(OC)cc1)C(NC(C)=O)c1cc(OC)ccc1Br (configuration not stated)", "%", 96.3],
  ["CCOC(=O)C(C(=O)c1ccc(OC)cc1)C(NC(C)=O)c1cc(OC)c(OC)c(OC)c1 (configuration not stated)", "%", 97.8],
  ["CCOC(=O)C(C(=O)c1ccc(OC)cc1)C(NC(C)=O)c1ccc(C(C)(C)C)cc1 (configuration not stated)", "%", 94.5],
  ["CSc1ccc(C(=O)/C(=C/c2cccnc2)c2ccc(Cl)c(Cl)c2)cc1", "%", 95.7],
  ["CSc1ccc(C(=O)C(c2ccc(Cl)c(Cl)c2)C(NC(=O)c2ccccc2)c2cccc3ccccc23)cc1 (configuration not stated)", "%", 98.2]
]}

====

test: Toxicity in BALB/c mouse infected with Leishmania donovani promastigotes assessed as serum AST level at 50 mg/kg , ip measured after 3 to 7 weeks (reference value: 114 U/L); assay type: organism-based; conditions: in vivo
REPORTED PROPERTY: Activity

{"columns": ["MOLECULE", "RESULT VALUE"],
 "data": [
  ["CCOC(=O)C(C(=O)c1ccc(OC)cc1)C(NC(C)=O)c1cccc2ccccc12 (stereo unspecified)", "54 to 298 IU/L"]
]}

====

system: Leishmania donovani; assay: Antileishmanial activity against promastigote stage of Leishmania donovani MHOM/IN/80/Dd8 harboring luciferase reporter gene at 25 uM after 48 hrs by Steady-Glo luminescence assay relative to control; format: functional; details: MHOM/IN/80/Dd8, 48 h
# Lookup of reported inhibition at 25 µM keyed by entry

{"columns": ["COMPOUND", "inhibition at 25 µM"],
 "data": [
  ["CCOC(=O)C(C(=O)c1ccc(OC)cc1)C(NC(C)=O)c1cc(OC)c(OC)c(OC)c1 (stereo unspecified)", "28.3%"],
  ["CCOC(=O)C(C(=O)c1ccc(OC)cc1)C(NC(C)=O)c1cc(OC)ccc1Br (stereo unspecified)", "68%"],
  ["CSc1ccc(C(=O)C(c2ccc(Cl)c(Cl)c2)C(NC(C)=O)c2cccc3ccccc23)cc1 (stereo unspecified)", "55.8%"],
  ["CSc1ccc(C(=O)/C(=C/c2cccnc2)c2ccc(Cl)c(Cl)c2)cc1", "46.7%"],
  ["CSc1ccc(C(=O)C(c2ccc(Cl)c(Cl)c2)C(NC(=O)c2cccc(C)c2)c2cccc3ccccc23)cc1 (stereo unspecified)", "27.2%"],
  ["CCOC(=O)C(C(=O)c1ccc(OC)cc1)C(NC(C)=O)c1ccc(C(C)C)cc1 (stereo unspecified)", "30.8%"],
  ["CSc1ccc(C(=O)C(c2ccc(Cl)c(Cl)c2)C(NC(=O)c2ccc(C)cc2)c2cc3ccccc3s2)cc1 (stereo unspecified)", "20.1%"],
  ["CSc1ccc(C(=O)/C(=C/c2ccccn2)c2ccc(Cl)c(Cl)c2)cc1", "53.4%"],
  ["CSc1ccc(C(=O)/C(=C/c2cc3ccccc3s2)c2ccc(Cl)c(Cl)c2)cc1", "62.1%"],
  ["CCOC(=O)C(C(=O)c1ccc(OC)cc1)C(NC(C)=O)c1cccc2ccccc12 (stereo unspecified)", "85.3%"],
  ["CSc1ccc(C(=O)C(c2ccc(Cl)c(Cl)c2)C(NC(=O)c2ccccc2)c2cc3ccccc3s2)cc1 (stereo unspecified)", "22.4%"]
]}

====

experiment: Cytotoxicity against African green monkey Vero cells assessed as reduction in cell viability after 72 hrs by MTT assay; format: cell-based; settings: chlorocebus sabaeus

{"columns": ["COMPOUND", "CC50 at 72 h"],
 "data": [
  ["CCOC(=O)C(C(=O)c1ccc(OC)cc1)C(NC(C)=O)c1cccc2ccccc12 (stereo unspecified)", "> 350 µM"]
]}
